Each entry below lists one item and its recorded Preemergence herbicidal activity AMARE value.
Test system: pigweed (Amaranthus retroflexus)
Assay: Preemergence herbicidal activity
Type: in vivo
Settings: 17.5 g/Ha; scored after 3 weeks; 0 no injury, 100 complete kill or no germination
Numbers only here, please. The scale is %.

// worked examples, Preemergence herbicidal activity AMARE included
COc1cc(OC)n2nc(NS(=O)(=O)c3c(Cl)cccc3Cl)nc2n1	100
COc1cc(OC)n2nc(NS(=O)(=O)c3c(OCC(F)(F)F)cccc3C(F)(F)F)nc2n1	98
COc1cc(OC)n2nc(NS(=O)(=O)c3c(OC)cccc3OC)nc2n1	100
COc1cc(OC)n2nc(NS(=O)(=O)c3c(I)ccnc3OC)nc2n1	100

Task: Which value of Preemergence herbicidal activity AMARE has been reported for `COc1cc(OC)n2nc(NS(=O)(=O)c3c(C(F)(F)F)ccnc3OC)nc2n1` in the records?
Output: 70

Task: Which value of Preemergence herbicidal activity AMARE has been reported for `COc1cc(OC)n2nc(NS(=O)(=O)c3c(OC)cccc3C(F)(F)F)nc2n1` in the records?
Output: 99

----------
Each entry below lists one item and its recorded Postemergence herbicidal activity VIOTR value.
System: viola (Viola tricolor)
Test: Postemergence herbicidal activity
Format: in vivo
Details: 62.5 ppm; scored after 2 weeks; 0 no injury, 100 complete kill
Numbers only here, please. The scale is %.

COc1cc(OC)n2nc(NS(=O)(=O)c3c(OC(C)C)cccc3C(F)(F)F)nc2n1 [Compound 11]	90
COc1cc(OC)n2nc(NS(=O)(=O)c3c(OCC(F)(F)F)cccc3C(F)(F)F)nc2n1 [Compound 12]	100
CCc1ccc(OC)c(S(=O)(=O)Nc2nc3nc(OC)cc(OC)n3n2)c1 [Compound 9]	50
COc1cc(OC)n2nc(NS(=O)(=O)c3cc(Cl)ccc3OC)nc2n1 [Compound 5]	90

--- query ---
Task: Which value of Postemergence herbicidal activity VIOTR has been reported for COC(=O)c1cccc(OC)c1S(=O)(=O)Nc1nc2nc(OC)cc(OC)n2n1 [Compound 7] in the records?
Output: 80

----------
System: chickweed (Stellaria media)
Assay: Postemergence herbicidal activity
Type: in vivo
Details: 7.8 ppm; scored after 2 weeks; 0 no injury, 100 complete kill
Each entry below lists one item and its recorded Postemergence herbicidal activity STEME value.
Form field: result (number plus unit)

// worked examples, Postemergence herbicidal activity STEME included
COc1cc(OC)n2nc(NS(=O)(=O)c3c(C(F)(F)F)ccnc3OC)nc2n1 [Compound 15]	98%
COc1cc(OC)n2nc(NS(=O)(=O)c3c(Cl)cccc3Cl)nc2n1 [Compound 1]	95%
CCOc1ccc(C)cc1S(=O)(=O)Nc1nc2nc(OC)cc(OC)n2n1 [Compound 10]	85%

--- query ---
Task: Which value of Postemergence herbicidal activity STEME has been reported for CCOc1cccc(C(F)(F)F)c1S(=O)(=O)Nc1nc2nc(OC)cc(OC)n2n1 [Compound 14] in the records?
Output: 98%

----------
System: lambsquarters (Chenopodium album)
Test: Preemergence herbicidal activity
Type: in vivo
Settings: 35 g/Ha; scored after 3 weeks; 0 no injury, 100 complete kill or no germination
readout-label: Preemergence herbicidal activity CHEAL (%)
Numbers only here, please. The scale is %.

COc1cc(OC)n2nc(NS(=O)(=O)c3cc(Cl)ccc3OCCF)nc2n1	95

Task: Which value of Preemergence herbicidal activity CHEAL has been reported for `CCOc1nccc(C(F)(F)F)c1S(=O)(=O)Nc1nc2nc(OC)cc(OC)n2n1` in the records?
Output: 100

Task: Which value of Preemergence herbicidal activity CHEAL has been reported for `COc1cc(OC)n2nc(NS(=O)(=O)c3c(C(F)(F)C(F)(F)F)ccnc3OC)nc2n1` in the records?
Output: 100

Task: Which value of Preemergence herbicidal activity CHEAL has been reported for `CCOc1ccc(C)cc1S(=O)(=O)Nc1nc2nc(OC)cc(OC)n2n1` in the records?
Output: 90

----------
Each entry below lists one item and its recorded Preemergence herbicidal activity ECHCG value.
Test system: barnyardgrass (Echinochloa crus-galli)
Experiment: Preemergence herbicidal activity
Format: in vivo
Conditions: 35 g/Ha; scored after 3 weeks; 0 no injury, 100 complete kill or no germination
Numbers only here, please. The scale is %.

// worked examples, Preemergence herbicidal activity ECHCG included
COc1cc(OC)n2nc(NS(=O)(=O)c3cc(Cl)ccc3OCCF)nc2n1 [Compound 13]	80
COc1cc(OC)n2nc(NS(=O)(=O)c3c(C(F)(F)C(F)(F)F)ccnc3OC)nc2n1 [Compound 18]	90
CCOc1nccc(C(F)(F)F)c1S(=O)(=O)Nc1nc2nc(OC)cc(OC)n2n1 [Compound 19]	70
CCOc1ccc(C)cc1S(=O)(=O)Nc1nc2nc(OC)cc(OC)n2n1 [Compound 10]	80

--- query ---
Task: Which value of Preemergence herbicidal activity ECHCG has been reported for COc1cc(OC)n2nc(NS(=O)(=O)c3cc(C)ccc3OC)nc2n1 [Compound 6] in the records?
Output: 90

----------
Each entry below lists one item and its recorded Postemergence herbicidal activity AVEFA value.
System: wild oats (Avena fatua)
Experiment: Postemergence herbicidal activity
Format: in vivo
Conditions: 7.8 ppm; scored after 2 weeks; 0 no injury, 100 complete kill
Numbers only here, please. The scale is %.

COc1cc(OC)n2nc(NS(=O)(=O)c3c(C(F)(F)F)ccnc3OC)nc2n1 [Compound 15]	98
CCOc1cccc(C(F)(F)F)c1S(=O)(=O)Nc1nc2nc(OC)cc(OC)n2n1 [Compound 14]	50
COc1cc(OC)n2nc(NS(=O)(=O)c3c(Cl)cccc3Cl)nc2n1 [Compound 1]	95

Task: Which value of Postemergence herbicidal activity AVEFA has been reported for CCOc1ccc(C)cc1S(=O)(=O)Nc1nc2nc(OC)cc(OC)n2n1 [Compound 10] in the records?
Output: 90

----------
Test system: viola (Viola tricolor)
Assay: Postemergence herbicidal activity
Assay type: in vivo
Details: 7.8 ppm; scored after 2 weeks; 0 no injury, 100 complete kill
Each entry below lists one item and its recorded Postemergence herbicidal activity VIOTR value.
Numbers only here, please. The scale is %.

CCOc1cccc(C(F)(F)F)c1S(=O)(=O)Nc1nc2nc(OC)cc(OC)n2n1	90
COc1cc(OC)n2nc(NS(=O)(=O)c3c(Cl)cccc3Cl)nc2n1	75
CCOc1ccc(C)cc1S(=O)(=O)Nc1nc2nc(OC)cc(OC)n2n1	85

Task: Which value of Postemergence herbicidal activity VIOTR has been reported for `COc1cc(OC)n2nc(NS(=O)(=O)c3c(C(F)(F)F)ccnc3OC)nc2n1` in the records?
Output: 95

----------
System: cocklebur (Xanthium strumarium)
Assay: Postemergence herbicidal activity
Type: in vivo
Settings: 62.5 ppm; scored after 2 weeks; 0 no injury, 100 complete kill
readout-label: Postemergence herbicidal activity XANST (%)
Numbers only here, please. The scale is %.

COc1cc(OC)n2nc(NS(=O)(=O)c3c(OC(C)C)cccc3C(F)(F)F)nc2n1	100
COc1cc(OC)n2nc(NS(=O)(=O)c3c(OCC(F)(F)F)cccc3C(F)(F)F)nc2n1	100
COC(=O)c1cccc(OC)c1S(=O)(=O)Nc1nc2nc(OC)cc(OC)n2n1	40
COc1cc(OC)n2nc(NS(=O)(=O)c3cc(Cl)ccc3OC)nc2n1	100

Task: Field: Postemergence herbicidal activity XANST (cocklebur (Xanthium strumarium)). Entry: `CCc1ccc(OC)c(S(=O)(=O)Nc2nc3nc(OC)cc(OC)n3n2)c1`
Output: 70

----------
Each entry below lists one item and its recorded Preemergence herbicidal activity AMARE value.
Tested on: pigweed (Amaranthus retroflexus)
Experiment: Preemergence herbicidal activity
Format: in vivo
Details: 35 g/Ha; scored after 3 weeks; 0 no injury, 100 complete kill or no germination
Numbers only here, please. The scale is %.

// worked examples, Preemergence herbicidal activity AMARE included
COc1cc(OC)n2nc(NS(=O)(=O)c3cc(C)ccc3OC)nc2n1	98
CCOc1nccc(C(F)(F)F)c1S(=O)(=O)Nc1nc2nc(OC)cc(OC)n2n1	100
COc1cc(OC)n2nc(NS(=O)(=O)c3cc(Cl)ccc3OCCF)nc2n1	95

Task: Which value of Preemergence herbicidal activity AMARE has been reported for `COc1cc(OC)n2nc(NS(=O)(=O)c3c(C(F)(F)C(F)(F)F)ccnc3OC)nc2n1` in the records?
Output: 100

Task: Which value of Preemergence herbicidal activity AMARE has been reported for `CCOc1ccc(C)cc1S(=O)(=O)Nc1nc2nc(OC)cc(OC)n2n1` in the records?
Output: 98

----------
Test system: morningglory (Ipomoea hederacea)
Assay: Postemergence herbicidal activity
Type: in vivo
Details: 31.3 ppm; scored after 2 weeks; 0 no injury, 100 complete kill
Each entry below lists one item and its recorded Postemergence herbicidal activity IPOHE value.
Numbers only here, please. The scale is %.

Task: Which value of Postemergence herbicidal activity IPOHE has been reported for COc1cc(OC)n2nc(NS(=O)(=O)c3c(OCC(F)F)cccc3C(F)(F)F)nc2n1 [Compound 8] in the records?
Output: 95

Task: Which value of Postemergence herbicidal activity IPOHE has been reported for COc1cc(OC)n2nc(NS(=O)(=O)c3cc(C)ccc3OC)nc2n1 [Compound 6] in the records?
Output: 70

Task: Which value of Postemergence herbicidal activity IPOHE has been reported for COc1cc(OC)n2nc(NS(=O)(=O)c3cc(Cl)ccc3OCCF)nc2n1 [Compound 13] in the records?
Output: 70

Task: Which value of Postemergence herbicidal activity IPOHE has been reported for COc1cc(OC)n2nc(NS(=O)(=O)c3c(C(F)(F)C(F)(F)F)ccnc3OC)nc2n1 [Compound 18] in the records?
Output: 70

Data origin, for the record: patent US6559101B2
